These entries and their values trace back to paper PMC7641730.

Target: T1, HsOrc6-DBD (Homo sapiens, UniProt Q9Y5N6 95-207)
T1 sequence: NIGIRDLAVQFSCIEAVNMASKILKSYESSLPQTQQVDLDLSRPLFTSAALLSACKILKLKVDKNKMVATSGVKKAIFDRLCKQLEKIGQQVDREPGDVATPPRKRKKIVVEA
Experiment: NMR titration (1H,15N-HSQC); range over residues: K169 47.1±1.4, A170 57.7±1.1, R200 9.92±2.91, I203 11.3±1.5; NMR: 50 mM sodium phosphate pH 6.5, 100 mM NaCl, 2 mM DTT, 298 K; ITC: 50 mM sodium phosphate pH 6.5, 100 mM NaCl, 25 C; EMSA: 25 mM Tris pH 8.0, 60 mM KCl, 5 mM MgCl2, 0.4 mM EDTA, 0.4 mM EGTA, 0.1% NP-40, 10% glycerol, 0.12 mg/ml BSA, room temperature 30 min
Settings: protein: recombinant; tags: none (N-terminal His-tag cleaved); blunt
result type: Kd (µM)

- 17-bp AT-rich DNA (dsDNA) DNA 1: GGCCCTTTTTTTTCTAG DNA 2: CTAGAAAAAAAAGGGCC: 23.9
